System: Mycobacterium tuberculosis
Assay text: Antimycobacterial activity against Mycobacterium tuberculosis H37Rv at 16 ug/mL by microplate alamar blue assay
Type: functional
Property: inhibition at 16 µg/mL (%)
The reply should contain only the number, in %.

Example cases with answers are listed next.
CO[C@H]1/C=C/O[C@@]2(C)Oc3c(C)c(O)c4c(O)c(c(/C=N/N5CCN(C)CC5)c(O)c4c3C2=O)NC(=O)/C(C)=C\C=C\[C@H](C)[C@H](O)[C@@H](C)[C@@H](O)[C@@H](C)[C@H](OC(C)=O)[C@@H]1C ... 99
CC(C)[C@@H](C)CC[C@@H](C)[C@H]1CC[C@H]2[C@@H]3CC=C4C[C@@H](O)CC[C@]4(C)[C@H]3CC[C@]12C ... 21
CC(C)[C@@H](C)[C@]1(C)C[C@@H]1[C@@H](C)[C@H]1CC[C@H]2[C@@H]3CC=C4C[C@@H](O)CC[C@]4(C)[C@H]3CC[C@]12C ... 10
CC(C)CCC[C@@H](C)[C@H]1CC[C@H]2[C@@H]3CC=C4C[C@@H](O)CC[C@]4(C)[C@H]3CC[C@]12C ... 33

Now take the following molecule into account.
State its inhibition at 16 µg/mL for this molecule: CC[C@@H](CC[C@@H](C)[C@H]1CC[C@H]2[C@@H]3C(C=O)=C4C[C@@H](O)CC[C@]4(C)[C@H]3CC[C@]12C)C(C)C
98
